# Procedure Summary: Three-way crossover PK of ARV-471 API and ASD compositions, fed beagle dogs
# Format: in vivo
# Experimental Context: dog, plasma, 60 mg of API oral, fed condition, geometric mean
# Experimental: To investigate the oral absorption of ARV-110, two-way crossover or three-way crossover designs were performed. Six Beagle dogs were classified into two or three groups. […] Blood samples were taken from each group of animals at the different time points after the drug administration. Plasma concentrations were analyzed by an LC-MS/MS method. […]
Quantity Name: AUC(0-inf)
# output: number + unit

// O=C1CC[C@H](N2Cc3cc(N4CCN(CC5CCN(c6ccc([C@@H]7c8ccc(O)cc8CC[C@@H]7c7ccccc7)cc6)CC5)CC4)ccc3C2=O)C(=O)N1 : AUC(0-inf) value = 5840 ng·h/mL
